Cited source: paper doi:10.1101/713511

# System: MOAG-4 (C. elegans)
# test details: fluorescence anisotropy
outcome measure: Kd (µM)
Please respond with the number in µM and leave the unit unwritten.

Which Kd reading was recorded for the sequence ACUGCUAGAGAUUUUCCACAU [Cy3-R21(-)] ?
4.79
